Assay: chemical genetic growth profiling, strain panel (AID 1159580);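 further: tested at 20 µM; growth read once vehicle control cultures reached saturation at 30 °C; lower values mean less growth of the strain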
Conditions: S. cerevisiae deletion strains, growth OD, locus YNL128W, strain TEP1
In all, about 5,500 compounds went through this assay and about 2,000 (36%) were called active. Another 18% or so got no clear call; they are omitted. No stated cut-off is given here; in the data, active means normalized growth mostly below about 0.91 (no sharp cut-off); inconclusive means no clear call, values can overlap the other calls; inactive means mostly above about 0.92. This is one part of the list.
The reply should name one outcome from active, inactive

stdin: For this compound, state the assay outcome: CC1=C(CC(=O)O)c2cc(F)ccc2/C1=C\c1ccc(S(C)=O)cc1 (stereo not given)
stdout: inactive

stdin: For this compound, state the assay outcome: `CCCCNc1c(C(=O)OCC)c(C)nc2c1cnn2CC`
stdout: inactive

stdin: For this compound, state the assay outcome: `C=C(C)[C@@H]1[C@H]2OC(=O)[C@@H]1[C@]1(O)C[C@H]3O[C@]34C(=O)O[C@H]2[C@]14C`
stdout: inactive
